System: S. enterica typhimurium WT
Test: growth AUC normalised to DMSO control (median) (fraction of control); higher = less growth inhibition, active = hit call of the paper;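 active = normalised median growth AUC below 0.1 of DMSO control; inactive = AUC 0.1 or higher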;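 note: active when median AUC fell below 0.1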
Conditions: 20 µM
Counter-ions that a name gives are not always drawn.
Select the correct class. Options are t = active, f = inactive and nothing else.

molecule	category_label
CC(C)(C)NCC(O)c1ccccc1Cl (configuration not stated) [Tulobuterol hydrochloride]	f
Nc1nc(N)nc(NC2CC2)n1	f
CN1C(=O)COc2c(C(=O)NC3CN4CCC3CC4)cc(Cl)cc21 (configuration not stated) [Azasetron hydrochloride]	f

Switching to the query record.
### Prompt Give the logged outcome of this assay for the following molecule: CC(C)(C)NCC(O)c1cc(Cl)c(N)c(Cl)c1 (configuration not stated) [Clenbuterol hydrochloride]
### Response f

* * *

Tested on: P. vulgatus WT
Assay: growth AUC normalised to DMSO control (median) (fraction of control); higher = less growth inhibition, active = hit call of the paper
Settings: 20 µM
Counter-ions that a name gives are not always drawn.
molecules and their reported growth AUC normalised to DMSO control

>>> print(df.to_string())
                                   molecule   measured_result
0  CC(Cc1ccccc1)NCCC(c1ccccc1)c1ccccc1 (centres undefined) [Prenylamine lactate]   1.04 (inactive)
1  CC(C)(C)NCC(O)c1ccccc1Cl (centres undefined) [Tulobuterol hydrochloride]   1.01 (inactive)
2  O=C1CC[C@@]2(O)[C@H]3Cc4ccc(O)c5c4[C@@]2(CCN3CC2CC2)[C@H]1O5 [Naltrexone hydrochloride dihydrate]   1.02 (inactive)
3  CCCC(C)(COC(N)=O)COC(=O)NC(C)C (centres undefined)   1.02 (inactive)
4  CN1C[C@H](CNC(=O)OCc2ccccc2)C[C@@H]2c3cccc4c3c(cn4C)C[C@H]21  0.885 (inactive)
5  CC(CCc1ccccc1)NC(C)C(O)c1ccc(O)cc1 (centres undefined)  0.998 (inactive)

// C[CH2][Hg][S]c1ccccc1C(=O)[O-].[Na+] : growth AUC normalised to DMSO control value = 0.341 (inactive)

Per the records, this molecule ( C=C1C[C@@H]2[C@H](CC[C@]3(C)C(=O)CC[C@@H]23)[C@@]2(C)C=CC(=O)C=C12 ) has growth AUC normalised to DMSO control equal to 0.969 (inactive)

According to the records, this molecule NCCc1c[nH]c2ccc(O)cc12 [Serotonin hydrochloride] displays growth AUC normalised to DMSO control of 1.08 (inactive)

* * *

System: S. enterica typhimurium tolC KO
Experiment: growth AUC normalised to DMSO control (median) (fraction of control); higher = less growth inhibition, active = hit call of the paper;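 active = normalised median growth AUC below 0.1 of DMSO control; inactive = AUC 0.1 or higher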
Conditions: 20 µM
Counter-ions that a name gives are not always drawn.
Lab note: assign the record to one of T for active, F for inactive

Solved entries (count: 2):
compound	category_label
NCC(CC(=O)O)c1ccc(Cl)cc1 (stereo not drawn)	F
O=[N+]([O-])O[C@@H]1CO[C@H]2[C@@H]1OC[C@@H]2O [Isosorbide mononitrate]	F

### Prompt Write down the call the test reported for this compound. Item: NC(=O)OCCCc1ccccc1 [Phenprobamate]
### Response F

### Prompt Dear all, I need the recorded test outcome for CC(C)N(CCC(C(N)=O)(c1ccccc1)c1ccccn1)C(C)C (stereo not drawn) [Disopyramide] , thank you.
### Response F

### Prompt So what was the verdict on CN1CCC2(C)c3cc(O)ccc3N(C)C12 (single isomer, unassigned; (-)) [(-) Eseroline fumarate salt] in this test?
### Response F

### Prompt Entry C[CH2][Hg][S]c1ccccc1C(=O)[O-].[Na+] : call = ?
### Response F

### Prompt Dear all, I need the recorded test outcome for CN1C(=O)COc2c(C(=O)NC3CN4CCC3CC4)cc(Cl)cc21 (stereo not drawn) [Azasetron hydrochloride] , thank you.
### Response F

### Prompt What did the test return for S=C(NC1CCCCC1)N1CCC(c2cnc[nH]2)CC1 [Thioperamide maleate] ?
### Response F

### Prompt For this compound, state the assay outcome: CCC1(C)CC(=O)NC(=O)C1 [Bemegride]
### Response F

### Prompt Answer briefly: the call reported for CN[C@@H]1C[C@@H](c2ccc(Cl)c(Cl)c2)c2ccccc21 [Indatraline hydrochloride] in this assay.
### Response F
